# assayTarget: human ether-à-go-go-related gene (hERG) potassium channel (human, UniProt Q12809);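 also: peak tail current of the secondary pulse compared with the same well before compound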
# Sequence (Q12809 whole entry, looked up): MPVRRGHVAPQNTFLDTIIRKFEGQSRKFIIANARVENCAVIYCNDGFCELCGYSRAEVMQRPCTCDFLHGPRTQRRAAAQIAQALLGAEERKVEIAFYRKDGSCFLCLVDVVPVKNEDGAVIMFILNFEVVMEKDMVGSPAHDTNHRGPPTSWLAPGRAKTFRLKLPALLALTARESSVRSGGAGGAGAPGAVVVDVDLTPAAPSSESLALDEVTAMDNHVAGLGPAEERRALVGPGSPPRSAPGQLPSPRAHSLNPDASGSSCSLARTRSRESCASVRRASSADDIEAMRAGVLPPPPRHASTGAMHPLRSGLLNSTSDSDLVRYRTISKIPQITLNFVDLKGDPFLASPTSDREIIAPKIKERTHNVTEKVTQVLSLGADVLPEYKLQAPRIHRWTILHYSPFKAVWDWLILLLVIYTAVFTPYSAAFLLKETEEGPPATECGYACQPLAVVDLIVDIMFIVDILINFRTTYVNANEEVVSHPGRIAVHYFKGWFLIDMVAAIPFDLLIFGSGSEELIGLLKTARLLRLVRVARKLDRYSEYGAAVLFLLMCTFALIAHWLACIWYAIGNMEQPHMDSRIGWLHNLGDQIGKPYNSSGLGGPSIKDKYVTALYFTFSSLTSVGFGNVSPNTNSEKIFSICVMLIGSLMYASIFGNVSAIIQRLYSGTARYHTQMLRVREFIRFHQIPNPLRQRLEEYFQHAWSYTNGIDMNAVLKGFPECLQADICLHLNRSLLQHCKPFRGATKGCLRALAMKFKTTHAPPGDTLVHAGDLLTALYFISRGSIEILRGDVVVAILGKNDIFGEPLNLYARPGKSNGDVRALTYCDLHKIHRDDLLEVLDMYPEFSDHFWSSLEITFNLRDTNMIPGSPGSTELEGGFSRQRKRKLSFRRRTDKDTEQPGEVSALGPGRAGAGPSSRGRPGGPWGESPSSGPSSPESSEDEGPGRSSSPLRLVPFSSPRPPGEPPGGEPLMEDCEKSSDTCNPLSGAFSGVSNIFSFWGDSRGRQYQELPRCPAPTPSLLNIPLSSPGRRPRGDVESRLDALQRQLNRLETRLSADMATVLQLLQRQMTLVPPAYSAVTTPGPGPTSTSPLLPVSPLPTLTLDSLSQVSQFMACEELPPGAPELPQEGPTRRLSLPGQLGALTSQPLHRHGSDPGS
# runDescription: primary screen, population patch clamp on CHO cells stably expressing hERG; higher = less effect of the substance
In all, about 310,000 compounds went through this assay and about 14,000 (4.5%) showed an effect of 50% or more. Effects have a minus sign here. The list comes from a sample in which strong results are over-represented; it also holds close analogues and randomly drawn compounds.
This listing pairs compounds with measured hERG current change (%, negative = inhibition) at 10uM.
quantityKind: hERG current change (%, negative = inhibition) at 10uM

COc1ccc(OC)c(N(CC(=O)NCCSC2CCCCC2)S(=O)(=O)c2ccccc2)c1 : 16%
CC1CCC2(CC1)NC(=O)N(CC(=O)Nc1ccc3[nH]c(=O)[nH]c3c1)C2=O (centres unmarked) : 0.0265%
COc1ccc2c3n(nc2c1)CCN=C3c1ccc(C)cc1 : -14.3%
C=CCc1cccc2cc(C(=O)N3CCN(c4ccccn4)CC3)c(=O)oc12 : -38.9%
CC(=O)OC1(c2ccccc2)CCN(C)CC1(C)C.Cl (centres unmarked) : 35.4%
Nc1nc(CN2CCN(c3ccc(F)cc3)CC2)nc(N2CCCc3ccccc32)n1 : -52.9%
O=C(Nc1nc(-c2ccc(F)cc2)cs1)c1cccc(N2C(=O)CCC2=O)c1 : 9.67%
CCC(C(=O)Nc1ccc(C)cc1)c1ccccc1 (centres unmarked) : 19.1%
Cc1[nH]c(C)c(S(=O)(=O)N(C)Cc2ccccc2)c1C(=O)N1CCCC1 : 15.2%
CC1CCN(C(=O)c2ccc(-n3cnnn3)cc2)CC1 : -72.1%
COc1ccc(N2CCN(Cc3nc(N)nc(N4CCCc5ccccc54)n3)CC2)cc1 : -27.9%
CCN(CC)S(=O)(=O)c1ccc(O)c(C(=O)OCC(=O)N2CCCC2)c1 : 11.4%
O=Cc1coc2ccc3ccccc3c2c1=O : 14.5%
N#Cc1ccc(OCc2cccc(S(=O)(=O)N3CCOCC3)c2)cc1 : -82.1%
COCCCN1C(=O)C(O)=C(C(C)=O)C1c1cccc(F)c1 (centres unmarked) : 7.18%
CCOC(=O)[C@@H]1[C@H]2COc3ccc(Br)cc3[C@@H]2N2C(=O)N(c3ccc(C)cc3)C(=O)[C@]12C : 5.6%
O=S(=O)(c1cccc(COc2ccc(Cl)cc2Cl)c1)N1CCOCC1 : 3.46%
Nc1nc(CN2CCN(Cc3ccccc3)CC2)nc(N2CCCc3ccccc32)n1 : -56.5%
COc1ccc(-n2c(=S)[nH]c3ncccc3c2=O)cc1 : 7.98%
N#Cc1ccccc1OCc1cccc(S(=O)(=O)N2CCOCC2)c1 : -38.9%
O=C(c1ccc(=O)oc1)N1CCN(C(c2ccccc2)c2ccccc2)CC1 : -32.2%
CC(C)Nc1ccc(-n2nc3ccccc3[n+]2[O-])cc1 : 6.09%
CN(C)C1(CNC(=O)CC(NC(=O)c2ccccc2Cl)c2ccccc2)CCCCC1 (centres unmarked) : -31.3%
Nc1nc(CN2CCN(c3cccc(Cl)c3)CC2)nc(N2CCCc3ccccc32)n1 : -6.96%
O=C(O)c1cc2n(n1)CCN(Cc1ccccc1Cl)C2=O : 8.71%
O=S(=O)(c1cccc(COc2c(Cl)cccc2Cl)c1)N1CCOCC1 : -12%
CCOc1cccc(OCCOCCOc2ccccc2C(C)=O)c1 : -7.23%
CCC(C(=O)O)n1nc(-c2ccccc2)c2cc(Cl)ccc21 (centres unmarked) : 13.8%
CCCCCc1c(C)nc(NCc2ccccc2)[nH]c1=O : -4.44%
Cc1ccc(-n2c(-c3ccncc3)n[nH]c2=S)c(C)c1 : 13.7%
CC(O)CNc1nc2sc3c(c2c(=O)n1CCc1ccccc1)CCCCC3 (centres unmarked) : 13.1%
COc1ccc(Cn2c(C)c(C)c(C#N)c2NC(=O)Nc2ccc(F)cc2)cc1 : -3.49%
Nc1nc(CN2CCN(c3ccccc3F)CC2)nc(N2CCCc3ccccc32)n1 : -11.7%
C[C@]12CC[C@@H]3c4cc(O)c(O)cc4CC[C@H]3[C@@H]1CC[C@@H]2O : 24.1%
O=C(c1ccc(Cl)cc1)C1CCN(C(=O)c2ccc(F)cc2)CC1 : -34.7%
Cc1ccccc1C(=O)N1CCC(C(=O)N(C)CCOc2ccccc2)CC1 : 9.06%
COc1ccc(NC(=O)Cc2ccccc2)cc1 : 4.36%
CCCOc1cccc(C(=O)N2CCN(C(=O)C3CCCO3)CC2)c1 (centres unmarked) : 7.15%
COc1ccc(-n2c(C)cc(C(=O)CN3CCCCC3)c2C)cc1 : 1.6%
COc1ccc(NC(=O)CSc2nnc(-c3ccccc3C)n2N)cc1 : 31.2%
COc1cc(OC)cc(-c2nc(-c3ccccc3)no2)c1 : 5.45%

Where do these numbers come from? They come from paper PMC4336329.
